# Tested target: NDM-1 (Klebsiella pneumoniae)
# Sequence (C7C422 whole entry, looked up, species assumed): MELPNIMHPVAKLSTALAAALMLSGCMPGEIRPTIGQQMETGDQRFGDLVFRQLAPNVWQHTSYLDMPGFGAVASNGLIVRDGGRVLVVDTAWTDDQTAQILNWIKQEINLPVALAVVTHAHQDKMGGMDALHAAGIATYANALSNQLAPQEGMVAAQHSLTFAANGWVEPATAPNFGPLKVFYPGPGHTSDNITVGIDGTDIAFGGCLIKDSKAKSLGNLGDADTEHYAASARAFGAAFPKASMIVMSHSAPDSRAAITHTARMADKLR
Measured metric: pIC50
// returns pIC50 (minus log10 of molar concentration), number only

| Compound | Tested target | pIC50 |
| --- | --- | --- |
| NS(=O)(=O)c1c(S(=O)(=O)N[C@@H]2CCNC2)ccc(N2CC(N3CCCCC3)C2)c1-c1nnn[nH]1 [Example 112] | NDM-1 (Klebsiella pneumoniae) | 8.05 |

Exam item: Any idea what pIC50 came out for NC[C@H](N)CNS(=O)(=O)c1ccc(N2CCC(c3c[nH]cn3)CC2)c(-c2nn[nH]n2)c1S(N)(=O)=O [Example 168] on NDM-1 (Klebsiella pneumoniae)?
Marked response: 9.77

Exam item: Any idea what pIC50 came out for NS(=O)(=O)c1c(S(=O)(=O)N[C@@H]2CCNC2)ccc(N2CCNCC2)c1-c1nnn[nH]1 [Example 79] on NDM-1 (Klebsiella pneumoniae)?
Marked response: 8.03
